Origin of values: the RNAGym collection of RNA variant scans (doi:10.1093/nar/gkz1192)

B1: CPEB3 Ribozyme (parent)
chain: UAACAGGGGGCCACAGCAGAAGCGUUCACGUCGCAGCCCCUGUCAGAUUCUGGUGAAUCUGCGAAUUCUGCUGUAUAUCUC

# Variants of: B1
# testDescription: self-cleavage, relative activity (ratio to wild type); higher = more cleavage; in vitro, sequencing

mutationName: G36U U78A
self-cleavage: 0.43

mutationName: A35U U58C
self-cleavage: 0.27

mutationName: U41A A64G
self-cleavage: 0.28

mutationName: U43C U67C
self-cleavage: 0.2

mutationName: G24C G63A
self-cleavage: 0.18

mutationName: U49C U67G
self-cleavage: 0.32

mutationName: C32A A75C
self-cleavage: 0.56

mutationName: C62U A75C
self-cleavage: 0.44

mutationName: A3G C59U
self-cleavage: 0.74

mutationName: A3C U60C
self-cleavage: 0.83

mutationName: C29A U72G
self-cleavage: 0.18

mutationName: U54C A56C
self-cleavage: 0.38

mutationName: U25C U26G
self-cleavage: 0.31

mutationName: A28C U69G
self-cleavage: 0.2

mutationName: U26C U69C
self-cleavage: 0.27

mutationName: C38A U72C
self-cleavage: 0.53

mutationName: U25C U60C
self-cleavage: 0.23

mutationName: U72C U80A
self-cleavage: 1.24

mutationName: C14A U74C
self-cleavage: 1.23

mutationName: U60C U66G
self-cleavage: 0.15

mutationName: U43G A56G
self-cleavage: 0.23

mutationName: C59G U69C
self-cleavage: 0.2

mutationName: U1A G73U
self-cleavage: 1.44

mutationName: A18U C23G
self-cleavage: 0.22

mutationName: G52A
self-cleavage: 1.14

mutationName: A2U G8U
self-cleavage: 0.28

mutationName: C62A G63A
self-cleavage: 0.25

mutationName: G10C A65G
self-cleavage: 0.33

mutationName: G22U U80C
self-cleavage: 0.24

mutationName: U31C G55U
self-cleavage: 0.76

mutationName: U31G U43C
self-cleavage: 0.36

mutationName: U51A U76G
self-cleavage: 1.09

mutationName: A18U A21G
self-cleavage: 0.25

mutationName: U25G C27U
self-cleavage: 0.39
